Listed next: entries and their corresponding pIC50.
Tested on: bladder cancer cell lines
Assay: Cell based assay, cell viability (CellTiter-Glo), bladder cancer cell lines
Details: Homo sapiens, T-24; T24 cells; 72 hours treatment; 0 to 2 μM; CellTiter-Glo; read-out: IC50, bladder cancer cell line T24
pIC50: −log10 of the molar value.

Please review the entries below; each comes with its answer.
[
  {
    "MOLECULE": "CC(=O)c1c([S+]([O-])Cc2ccc(I)cc2)[nH]c2c(Cl)ccc(Cl)c2c1=O (stereo not shown) [Compound 83]",
    "TESTED ON": "bladder cancer cell lines",
    "pIC50": 5.82
  },
  {
    "MOLECULE": "CC(=O)c1c([S+]([O-])CC#N)[nH]c2c(Br)ccc(Cl)c2c1=O (stereo not shown) [Compound 65]",
    "TESTED ON": "bladder cancer cell lines",
    "pIC50": "< 5.70"
  },
  {
    "MOLECULE": "CC(=O)c1c(SC(C)C)[nH]c2c(Br)ccc(Cl)c2c1=O [Compound 24]",
    "TESTED ON": "bladder cancer cell lines",
    "pIC50": "< 5.70"
  },
  {
    "MOLECULE": "CC(=O)c1c([S+]([O-])Cc2ccc(S(F)(F)(F)(F)F)cc2)[nH]c2c(Br)ccc(Cl)c2c1=O (stereo not shown) [Compound 68]",
    "TESTED ON": "bladder cancer cell lines",
    "pIC50": 5.83
  },
  {
    "MOLECULE": "CC(=O)c1c(S/C=C\\C(=O)O)[nH]c2c(Br)ccc(Cl)c2c1=O [Compound 67]",
    "TESTED ON": "bladder cancer cell lines",
    "pIC50": "< 5.70"
  }
]

*Q* State, in one line, measured pIC50 of CC(=O)c1c([S+](C)[O-])n(S(=O)(=O)C(F)(F)F)c2c(Br)ccc(Cl)c2c1=O (stereo not shown) [Compound 36]
*A* < 5.70

*Q* Specify measured pIC50 for CC(=O)c1c(SCc2cc(Cl)ccc2Cl)[nH]c2c(Br)ccc(Cl)c2c1=O [Compound 43] .
*A* < 5.70

*Q* Supply recorded pIC50 for COc1ccccc1[S+]([O-])c1[nH]c2c(Br)ccc(Cl)c2c(=O)c1C(C)=O (stereo not shown) [Compound 15] here.
*A* < 5.70

*Q* State its pIC50: COCSc1[nH]c2c(Br)ccc(Cl)c2c(=O)c1C(C)=O [Compound 61]
*A* < 5.70

*Q* Assign pIC50 to the following record: CSc1c(C(C)=O)c(=O)c2c(Cl)ccc(Br)c2n1S(=O)(=O)c1ccc(C(C)(C)C)cc1 [Compound 40]
*A* < 5.70

*Q* Tell me measured pIC50 for CC(=O)c1c([S+]([O-])C(C)c2ccccc2)[nH]c2c(Br)ccc(Cl)c2c1=O (stereo not shown) [Compound 26] please.
*A* < 5.70

*Q* # return recorded pIC50 for input CSc1c(C(C)=O)c(=O)c2cc(F)ccc2n1C [Compound 7]
*A* < 5.70

*Q* Give the reported pIC50 for this molecule. COc1ccccc1Sc1[nH]c2c(Br)ccc(Cl)c2c(=O)c1C(C)=O [Compound 14]
*A* < 5.70

###

Tested on: colorectal cancer cell lines (e.g. DLD-1, HCT 116, SW620, HCT-15, HCT-8, RKO)
Test: Cell based assay, cell viability (CellTiter-Glo), colorectal cancer cell lines
Conditions: RKO, 72 hours treatment, read-out: IC50, colorectal cancer cell line RKO
RESULT TYPE: IC50

Examples from the recorded data:
[
  {
    "COMPOUND": "CC(=O)c1c(S(C)(=O)=O)n(C(=O)c2ccc(Br)cc2)c2c(Br)ccc(Cl)c2c1=O",
    "IC50": "> 2000 nM"
  },
  {
    "COMPOUND": "CC(=O)c1c([S+]([O-])Cc2c(F)cccc2Cl)[nH]c2c(Br)ccc(Cl)c2c1=O (centres unmarked)",
    "IC50": "> 2000 nM"
  },
  {
    "COMPOUND": "CC(=O)c1c([S+]([O-])Cc2cc(F)cc(S(F)(F)(F)(F)F)c2)[nH]c2c(Br)ccc(Cl)c2c1=O (centres unmarked)",
    "IC50": "1520 nM"
  },
  {
    "COMPOUND": "CC(=O)c1c(SCc2cc(F)cc(F)c2)[nH]c2c(Br)ccc(Cl)c2c1=O",
    "IC50": "> 2000 nM"
  }
]

*Q* Quickly give me recorded IC50 for "CC(=O)c1c(S(=O)(=O)Cc2ccccc2)nc2c(Br)ccc(Cl)c2c1O"
*A* > 2000 nM

###

Test system: prostate cancer cell lines (e.g. DU145/TXR)
Assay: Cell based assay, cell viability (CellTiter-Glo), prostate cancer cell lines
Settings: Homo sapiens, DU-145, DU145 cells, 72 hours treatment, final concentration 0 to 2 μM, read-out: IC50, prostate cancer cell line DU145
IC50 listing for selected molecules.

Below, each entry is followed by its recorded IC50 result.
[
  {
    "MOLECULE": "CC(=O)c1c([S+]([O-])Cc2ccc(C(C)(C)C)cc2)[nH]c2c(Br)ccc(Cl)c2c1=O (stereo not shown)",
    "IC50": "> 2000 nM"
  },
  {
    "MOLECULE": "CC(=O)c1c([S+]([O-])Cc2cccc(F)c2)[nH]c2c(Br)ccc(Cl)c2c1=O (stereo not shown)",
    "IC50": "1770 nM"
  },
  {
    "MOLECULE": "CC(=O)c1c(SCc2cccc(C#N)c2)[nH]c2c(Br)ccc(Cl)c2c1=O",
    "IC50": "> 2000 nM"
  },
  {
    "MOLECULE": "COc1cccc2[nH]c(SCc3ccc(S(F)(F)(F)(F)F)cc3)c(C(C)=O)c(=O)c12",
    "IC50": "> 2000 nM"
  },
  {
    "MOLECULE": "CC(=O)c1c(SCc2cccc(I)c2)[nH]c2c(Br)ccc(Cl)c2c1=O",
    "IC50": "> 2000 nM"
  },
  {
    "MOLECULE": "CC(=O)c1c(SCc2ccccc2)[nH]c2c(Br)ccc(Cl)c2c1=O",
    "IC50": "> 2000 nM"
  },
  {
    "MOLECULE": "CC(=O)c1c([S+]([O-])Cc2ccccc2)n(C(=O)c2ccc(Br)cc2)c2c(Br)ccc(Cl)c2c1=O (stereo not shown)",
    "IC50": "> 2000 nM"
  },
  {
    "MOLECULE": "CC(=O)c1c(SCc2cc(Cl)ccc2Cl)[nH]c2c(Br)ccc(Cl)c2c1=O",
    "IC50": "> 2000 nM"
  },
  {
    "MOLECULE": "CC(=O)c1c([S+]([O-])Cc2c(F)c(F)c(F)c(F)c2F)[nH]c2c(Br)ccc(Cl)c2c1=O (stereo not shown)",
    "IC50": "1150 nM"
  },
  {
    "MOLECULE": "O=C(c1c([S+]([O-])Cc2ccc(SC(F)(F)F)cc2)[nH]c2c(Br)ccc(Cl)c2c1=O)C1CC1 (stereo not shown)",
    "IC50": "1340 nM"
  }
]

Next molecule, IC50 to be filled in.
*Q* Hello, please tell me recorded IC50 for this one: CC(=O)c1c([S+]([O-])Cc2cccnc2)[nH]c2c(Br)ccc(Cl)c2c1=O (stereo not shown)
*A* 1390 nM

###

Catalogue of IC50 readings, one per entry.
Test system: prostate cancer cell lines (e.g. DU145/TXR)
Assay: Cell based assay, cell viability (CellTiter-Glo), prostate cancer cell lines
Conditions: Homo sapiens, LNcap cells, 72 hours treatment, final concentration 0 to 2 μM, read-out: IC50, prostate cancer cell line LNcap

[
  {
    "COMPOUND": "CC(=O)c1c([S+](C)[O-])n(Cc2ccc(F)c(Cl)c2)c2c(Br)ccc(Cl)c2c1=O (centres unmarked)",
    "TESTED ON": "prostate cancer cell lines (e.g. DU145/TXR)",
    "IC50": "> 2 µM"
  },
  {
    "COMPOUND": "CC(=O)c1c([S+]([O-])Cc2ccc(C(F)(F)F)cc2)[nH]c2c(Br)ccc(Cl)c2c1=O (centres unmarked)",
    "TESTED ON": "prostate cancer cell lines (e.g. DU145/TXR)",
    "IC50": "> 2 µM"
  },
  {
    "COMPOUND": "CC(=O)c1c([S+]([O-])Cc2ccc(C#N)s2)[nH]c2c(Br)ccc(Cl)c2c1=O (centres unmarked)",
    "TESTED ON": "prostate cancer cell lines (e.g. DU145/TXR)",
    "IC50": "> 2 µM"
  },
  {
    "COMPOUND": "CC(=O)c1c([S+]([O-])Cc2ccccc2)n(C(=O)c2ccc(Br)cc2)c2c(Br)ccc(Cl)c2c1=O (centres unmarked)",
    "TESTED ON": "prostate cancer cell lines (e.g. DU145/TXR)",
    "IC50": "> 2 µM"
  },
  {
    "COMPOUND": "CC(=O)c1c([S+]([O-])Cc2ccc(I)cc2)[nH]c2c(Cl)ccc(Cl)c2c1=O (centres unmarked)",
    "TESTED ON": "prostate cancer cell lines (e.g. DU145/TXR)",
    "IC50": "> 2 µM"
  },
  {
    "COMPOUND": "CC(=O)c1c([S+]([O-])Cc2cccc(I)c2)[nH]c2c(Br)ccc(Cl)c2c1=O (centres unmarked)",
    "TESTED ON": "prostate cancer cell lines (e.g. DU145/TXR)",
    "IC50": "> 2 µM"
  }
]

*Q* Report measured IC50; entry is CC(=O)c1c([S+]([O-])Cc2ccccc2)nc2c(Br)ccc(Cl)c2c1O (centres unmarked) [Compound 4]
*A* > 2 µM

*Q* Give a short answer stating reported IC50 for "CSc1[nH]c2c(Br)ccc(Cl)c2c(=O)c1C(C)=O" .
*A* > 2 µM

*Q* Consider the compound CC(=O)c1c([S+]([O-])Cc2cc(F)cc(S(F)(F)(F)(F)F)c2)[nH]c2c(Br)ccc(Cl)c2c1=O (centres unmarked) . State its measured IC50.
*A* > 2 µM

*Q* Given "CC(=O)c1c(SCc2ccc(F)c(Cl)c2)[nH]c2c(Br)ccc(Cl)c2c1=O" , respond with its IC50.
*A* > 2 µM

*Q* Could you please provide reported IC50 for CC(=O)c1c([S+]([O-])Cc2ccc([S+]([O-])C(F)(F)F)cc2)[nH]c2c(Br)ccc(Cl)c2c1=O (centres unmarked) ? Thanks!
*A* 1.71 µM

*Q* Using known records, supply IC50 for COc1ccccc1[S+]([O-])c1[nH]c2c(Br)ccc(Cl)c2c(=O)c1C(C)=O (centres unmarked)
*A* > 2 µM

*Q* Please give measured IC50 of the following entry: CC(=O)c1c([S+]([O-])Cc2ccc(SC(F)(F)F)cc2)[nH]c2c(Br)ccc(Cl)c2c1=O (centres unmarked)
*A* 1.82 µM
